Test: Single-dose clinical study: pharmacokinetics, noncompartmental analysis
Format: in vivo, human
Conditions: human, plasma; Cohort 1, 5 mg single IV bolus, hemodialysis subjects, geometric mean

| smiles.text | AUC, µg·h/mL |
| --- | --- |
| CC(=O)N[C@H](CSSC[C@H](N)C(=O)O)C(=O)N[C@H](C)C(=O)N[C@H](CCCNC(=N)N)C(=O)N[C@H](CCCNC(=N)N)C(=O)N[C@H](CCCNC(=N)N)C(=O)N[C@H](C)C(=O)N[C@H](CCCNC(=N)N)C(N)=O | 1.08 |

====

Assay: Single-dose clinical study: pharmacokinetics, noncompartmental analysis
Assay type: in vivo, human
Settings: human, plasma; Cohort 4, 40 mg single IV bolus, hemodialysis subjects, geometric mean
Procedure: A clinical study was performed to assess the safety and tolerability of rising single doses of Ac-c(C)arrrar-NH2 (SEQ ID NO:3), administered by IV bolus to patients diagnosed with CKD-BMD and SHPT, and who were receiving hemodialysis. Data were generated to measure changes in patient serum intact PTH (iPTH) and serum calcium as well as bioavailability of the single dose of Ac-c(C)arrrar-NH2 (SEQ ID NO:3). […]
property.label: AUC (µg·h/mL)

| compound | measure.unit | number |
| --- | --- | --- |
| CC(=O)N[C@H](CSSC[C@H](N)C(=O)O)C(=O)N[C@H](C)C(=O)N[C@H](CCCNC(=N)N)C(=O)N[C@H](CCCNC(=N)N)C(=O)N[C@H](CCCNC(=N)N)C(=O)N[C@H](C)C(=O)N[C@H](CCCNC(=N)N)C(N)=O [Ac-c(C)arrrar-NH2] | µg·h/mL | 8.89 |

Reference for the values: patent US20140315809A1
